Tested on: HCC-2998 colon
Assay: NCI-60 one-dose screen, 48 h
Settings: 10 µM unless noted
Method: Growth inhibition of the HCC-2998 human tumor cell line is measured as a screen for anti-cancer activity. Cells are grown in 96 well plates and exposed to the test compound for 48 hours. Compounds are tested at a single concentration, which is 10^-5 M for most compounds. The reported endpoint is percent growth (GI% or GIPRCNT), where numbers from 0 - 100% represent growth inhibition, and numbers from -100% - 0 represent cell death. For example, a value of 40 represents 60% growth inhibition. […]
Compounds without any hit were thinned out: in the full panel of roughly 83,000, 20% have a hit. The source made the active and inactive calls. Rule for the calls: active = growth percent below 10; inactive = the rest.
Hello, when you answer, please use one of the following outcomes: True for active, False for inactive

As a guide, the following entries are already answered.
compound: COC(=O)c1ccc2c(c1)[n+](=O)c(C(C)=O)c(C(F)(F)F)n2[O-]
target-or-system: HCC-2998 colon
class-name: True
//
compound: Cc1nn(-c2ccccc2)c(Cl)c1/C=N\N=c1/sc2ccccc2n1C
target-or-system: HCC-2998 colon
class-name: False
//
compound: O=S(=O)(NCCNc1nccc(-c2c(-c3cccc(F)c3)nc3sccn23)n1)c1ccc(Br)cc1
target-or-system: HCC-2998 colon
class-name: False
//
compound: COc1ccc(C(=O)C2C(C#N)C(C#N)C3c4ccccc4C=CN23)cc1 (stereo not given)
target-or-system: HCC-2998 colon
class-name: False

Now for another entry.
**Q:** State the result this test recorded for `Nc1c(C(=O)Nc2cccc3cnccc23)sc2nc3c(cc12)C(=O)CCC3` .
**A:** False

----------
Provide the reported growth of each item.
system: PC-3 prostate; experiment: NCI-60 one-dose screen, 48 h (100 = growth as untreated, 0 = no growth, -100 = all killed); conditions: 10 µM unless noted
This is part of a sample that, as a whole, favours compounds with a hit. Of some 83,000 tested, about 20% had one in any assay. Calls of active or inactive are those of the source. The calls were made as follows: active = growth percent below 10; inactive = the rest.

compound: Cc1ccc(NC(C(=O)c2ccccc2)c2ccccc2)cc1 (stereo not drawn)
target-or-system: PC-3 prostate
growth: 37.6% (inactive)
//
compound: COc1ccc(C(=O)/C=C/c2cc3ccccc3n3nnnc23)cc1
target-or-system: PC-3 prostate
growth: 103% (inactive)

Turning now to a further compound:
**Q:** # growth lookup, item `CCCCN1C=CCN(CCCC)C1`
**A:** 32.4% (inactive)

----------
System: LOX IMVI melanoma
Assay: NCI-60 one-dose screen, 48 h
Settings: 10 µM unless noted
Protocol: Growth inhibition of the LOX IMVI human tumor cell line is measured as a screen for anti-cancer activity. Cells are grown in 96 well plates and exposed to the test compound for 48 hours. Compounds are tested at a single concentration, which is 10^-5 M for most compounds. The reported endpoint is percent growth (GI% or GIPRCNT), where numbers from 0 - 100% represent growth inhibition, and numbers from -100% - 0 represent cell death. For example, a value of 40 represents 60% growth inhibition. […]
Compounds without any hit were thinned out: in the full panel of roughly 83,000, 20% have a hit. Calls of active or inactive are those of the source. The calls were made as follows: active = growth percent below 10; inactive = the rest.
Hello, when you answer, please use one of the following outcomes: yes (1) = active, no (0) = inactive

molecule: CC(c1ccccc1)C(C(=O)c1ccccc1)c1ccccc1 (stereo not drawn)
class-name: no (0)

**Q:** State the result this test recorded for `O=C1Nc2ccccc2/C1=C\c1c(-c2ccccc2)nc2ccccn12` .
**A:** no (0)

**Q:** State the result this test recorded for `CC(C)c1ccc(Nc2ccc3c(OCCCN4CCN(C)CC4)cccc3n2)cc1` .
**A:** yes (1)

**Q:** State the result this test recorded for Cc1ccc(C(=O)/C(=C\c2ccc([N+](=O)[O-])cc2)S(=O)Cc2ccc(F)cc2)cc1 (stereo not drawn) .
**A:** yes (1)

**Q:** State the result this test recorded for `O=C(Cn1c[n+](CC(=O)c2ccc([N+](=O)[O-])cc2)c2ccccc21)Nc1cccc2cccnc12` .
**A:** no (0)

**Q:** State the result this test recorded for `NS(=O)(=O)c1ccc(CCN2C(=O)c3cc(Cl)c(Cl)cc3C2=O)cc1` .
**A:** no (0)
